// data source = the RNAGym collection of RNA variant scans (doi:10.7554/elife.90254)

Listed here are variants together with their documented self-cleavage.
B1: OR4K15 (parent)
chain: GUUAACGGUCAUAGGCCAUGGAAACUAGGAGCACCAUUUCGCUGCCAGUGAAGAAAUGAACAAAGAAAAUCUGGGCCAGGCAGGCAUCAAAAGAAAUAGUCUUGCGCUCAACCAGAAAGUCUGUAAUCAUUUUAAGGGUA

- Variants of: B1
- PROCEDURE_DETAILS: self-cleavage, relative activity (ratio to wild type); higher = more cleavage; in vitro, sequencing; the parent is a self-cleaving ribozyme
Please give the numeric answer without any surrounding text.

>  <ENTRY_SEQUENCE>
GUUAACGGUCAUAGGCCAUGGGAACUAGGAGCACCAUUUCGCUGCCAGUGAAGAAAUGAACAAAGAAAAUCUGGGCCAGGCAGGCAUCAAAAGAAAUAGUCUUGCGCUCAACCAGAAAGUCUGUAAACAUUUUAAGGGUA [A22G U127A]

>  <RESULT>
2.2

$$$$
>  <ENTRY_SEQUENCE>
GUUAACGGUCAUAGGCCAUGGAAACUAGGAGCACCAUUUCGCUGCCAGUGAAGAAAUGAACAUAGAAAAUCUGGGCCAGGCAGGCAUCAAAAGAAAUUGUCUUGCGCUCAACCAGAAAGUCUGUAAUCAUUUUAAGGGUA [A63U A98U]

>  <RESULT>
1.84

$$$$
>  <ENTRY_SEQUENCE>
GUUAACGGUCAUAGGCCAUGGAAACUAGGAGCACCAUUUCGCUGCCAGUGAAGAAAUGAACAAAGAAAAUCUGGGCCAGGCAGGCAUCAAAAGAAAUGGUCUUGCGCUCAACCAGAAAGUCUGUAAACAUUUUAAGGGUA [A98G U127A]

>  <RESULT>
0.78

$$$$
>  <ENTRY_SEQUENCE>
GUUAACGGUCAUAGGCCAUGGAAACUAGGAGCACCAUUUCGCUGCCAGUGAAGAAAUGAACAAAGAAAAUCUGGGCCAGGCAGGCAUCAAAAGAAUUAGUCUUGCGCUCAACCAGAAAGUCUGUAAUCAUUUUAAGGGUA [A96U]

>  <RESULT>
1.88

$$$$
>  <ENTRY_SEQUENCE>
GUUAACGGUCAUAGGCCAUGGAAACUAGGAGCAUCAUUUCGCUGCCAGUGAAGAAAUGAACAAAGAUAAUCUGGGCCAGGCAGGCAUCAAAAGAAAUAGUCUUGCGCUCAACCAGAAAGUCUGUAAUCAUUUUAAGGGUA [C34U A67U]

>  <RESULT>
1.92

$$$$
>  <ENTRY_SEQUENCE>
GUUAACGGUCAUAGGCCAUGGAGACUAGGAGCACCAUUUCGCUGCCAGUGAAGAAAUGAACAAAGAAAAUCUGGGCCAGGCAGGCAUCAAAAGGAAUAGUCUUGCGCUCAACCAGAAAGUCUGUAAUCAUUUUAAGGGUA [A23G A94G]

>  <RESULT>
1.42

$$$$

Q: Fill blank: measured self-cleavage of the variant GUUACCGGUCAUAGGCCAUGGAAACUAGGAGCACCAUUUCGCUGCCAGUGAAGAAAUGAACAAAGAAAAUCUGGGCCAGGCAGGCAUCAAAAGAAAUAGUCUUGCGCUCAACCAGAAAGUCUGUAAUCAUUCUAAGGGUA [A5C U132C] is ____.
Ans: 1.97

Q: Fill blank: measured self-cleavage of the variant GUUAACGGUCAUAGGCCAUGGAAACUAGGAGCACCAUCUCGCUGCCAGUGAAGAAAUGACCAAAGAAAAUCUGGGCCAGGCAGGCAUCAAAAGAAAUAGUCUUGCGCUCAACCAGAAAGUCUGUAAUCAUUUUAAGGGUA [U38C A60C] is ____.
Ans: 2.1
